Please go through the items and note down their GI50.
# Test system: SF-295
# EXPERIMENTAL PROTOCOL: NCI tumour cell line growth inhibition, 48 h
Active and inactive are the calls of the source. Rule as the data show it: active = GI50 up to about 1.1 µM and inactive = higher.

Incoming: What value of GI50 has been recorded for this entry: `NNc1cnn(-c2ccccc2)c(=O)c1Cl`
Outgoing: > 100 µM (inactive)

Incoming: I am curious: what GI50 value has been reported for `COc1ccc2c(c1)/C(=C(\C(Cl)=C(Cl)Cl)[N+](=O)[O-])N2` ?
Outgoing: 62.4 µM (inactive)

Incoming: Returns the measured GI50 for the input compound. Input: CSC1(C)CC2C(CC1N1CCCCC1)C2(C)C (configuration not stated)
Outgoing: > 100 µM (inactive)

Incoming: Fill in: GI50 of `CCOC(=O)Cn1c(C(F)(F)F)nc2nc(Cl)c(Cl)nc21` is ___
Outgoing: 29 µM (inactive)

Incoming: Record request: GI50 value, item `CS/C(=N\c1ccc([N+](=O)[O-])cc1C#N)NC(=O)c1ccccc1`
Outgoing: > 100 µM (inactive)

Incoming: Report GI50 for CC(=O)Nc1ccc2c3c(cc(O)c2c1)N(C(=O)CCCCCC(=O)Nc1ccc2c4c(cc(O)c2c1)N(C(=O)OC(C)(C)C)CC4CCl)CC3CCl (configuration not stated) please.
Outgoing: 5.73 µM (inactive)

Incoming: # input compound: O=C1NC(=O)C2C(=O)NC(=O)C1C2Cc1ccco1 (configuration not stated) ; wanted: its GI50
Outgoing: > 100 µM (inactive)

Incoming: For COc1ccc(C2c3cc4c(cc3OC3(OC)COC(=O)C23)OCO4)c(OC)c1 (configuration not stated) , what is its reported GI50?
Outgoing: 12.8 µM (inactive)

Incoming: Name the reported GI50 value associated with the compound `Cc1cc2c(cc1C)[n+]([O-])c(C(=O)/C=C/c1ccccc1Cl)c(C)[n+]2[O-]`
Outgoing: 32.1 µM (inactive)

Incoming: For `Nc1c(C(=O)N/N=C/c2ccc(Cl)cc2)sc(=S)n1-c1ccccc1` , what is its reported GI50?
Outgoing: > 100 µM (inactive)

Incoming: Tell me the measured GI50 of `O=C1/C(=C/c2ccc([N+](=O)[O-])cc2)CNC/C1=C\c1ccc([N+](=O)[O-])cc1` , please.
Outgoing: 10.2 µM (inactive)

Incoming: Suppose we examine the compound C1=C(c2ccccc2)C(OC2Oc3ccccc3C=C2c2ccccc2)Oc2ccccc21 (configuration not stated) ; what GI50 value has been reported?
Outgoing: > 100 µM (inactive)

Incoming: // query GI50 value for entry N#CC1C(=O)N(c2ccccc2)NC12OC(=O)c1ccncc12 (configuration not stated)
Outgoing: > 20 µM (inactive)

Incoming: # lookup: GI50 of `CCCCCCCCCCCCCCCCNc1cccc2ccccc12`
Outgoing: > 100 µM (inactive)

Incoming: Fill in the blank: the reported GI50 of `COc1cc(Br)c(/C=N\c2cccc3cc(OC)c(OC)cc23)cc1OC` is ____.
Outgoing: 25.9 µM (inactive)

Incoming: Form field: reported GI50 of `O=C(/C=C\c1ccc(/C=C/C(=O)Nc2cccc(C3=NCCCN3)c2)cc1)Nc1cccc(C2=NCCCN2)c1`
Outgoing: > 100 µM (inactive)

Incoming: Reported GI50, compound CCN(CC)CCO/N=C1/C=C2CCC3C(CC[C@@]4(C)C3CC[C@]4(C)O)[C@@]2(C)CC1 (some centres not stated) : ____
Outgoing: 2.33 µM (inactive)

* * *

# Tested on: COLO 205
# EXPERIMENTAL PROTOCOL: NCI tumour cell line growth inhibition, 48 h
Active and inactive are the calls of the source. No stated cut-off is given here; in the data, active = GI50 up to about 1.1 µM and inactive = higher.
Would you kindly list GI50 for each of these compounds?

Incoming: Entry under review: `O=S(=O)(O)c1ccc([Se][Se]c2ccc(S(=O)(=O)O)cc2)cc1` . Reported GI50?
Outgoing: > 100 µM (inactive)

Incoming: Would you kindly share the measured GI50 for `Oc1ccc(Cl)cc1-c1cc(-c2ccccc2)nc(NCN2CCCCC2)n1` ?
Outgoing: > 100 µM (inactive)

Incoming: Give its GI50 value. Item: CCOC(=O)CCC(NC(=O)c1ccc(Nc2nc3ccccc3nc2C(=O)OCC)cc1)C(=O)OCC (stereo unspecified)
Outgoing: > 33.7 µM (inactive)

Incoming: Would you kindly share the measured GI50 for Cc1cc(=O)oc2c(CNC(CO)C(=O)O)c(O)ccc12 (stereo unspecified) ?
Outgoing: > 100 µM (inactive)

Incoming: Recorded GI50 for O=C(CC(=O)N1N=C(N2c3ccccc3Sc3ccccc32)CC1c1ccccc1)Nc1ccc(Cl)cc1 (stereo unspecified) , please?
Outgoing: > 100 µM (inactive)

Incoming: Which value of GI50 has been reported for `Cc1nnc2n1N=C(c1cc(F)c(Cl)cc1Cl)/C(=C/c1ccc(-c3ccc([N+](=O)[O-])cc3)o1)S2` in the records?
Outgoing: 65.9 µM (inactive)

Incoming: // returns reported GI50 for input `O=C(O)c1oc2ccc([N+](=O)[O-])c3c2c1CCC3`
Outgoing: > 100 µM (inactive)

Incoming: Which GI50 value belongs to `CSC1(SC)CCCCCCCCCCC1` ?
Outgoing: 19.2 µM (inactive)

Incoming: Reported GI50 for `CCCC(=O)c1ccc(=O)n(C)c1` : what is it?
Outgoing: > 100 µM (inactive)

Incoming: Reported GI50, compound `CCOP(=O)(Nc1ccc(-c2ccccc2)cc1)OCC` : ____
Outgoing: > 100 µM (inactive)

Incoming: Quick one: GI50 of COc1cc2c3c(c1OC)C1(C=CC(=O)C=C1)C[C@H]3N(C)CC2 [PRONUCIFERINE] ?
Outgoing: > 100 µM (inactive)

* * *

# System: HT-29
# EXPERIMENTAL PROTOCOL: NCI tumour cell line growth inhibition, 48 h
Activity calls are given as the source filed them. Cut-off read from the data, not from the text of the source: active = GI50 up to about 1.1 µM and inactive = higher. Positions of bridges follow the written chain, without caps; N, C: chain ends. Where a SMILES comes first, the peptide text is derived from it. Non-standard residues stand in square brackets, D forms with d. Residues, ends and D or L forms follow the SMILES beside them. The star is where a group is joined. Boc = CC(C)(C)OC(=O)*; Aib = CC(C)(N)C(=O)O; βAla = NCCC(=O)O
Hi there, use one of these labels in your reply, thanks! active, inactive

Incoming: Please indicate how the test categorized `CC(=O)Nc1ccc(-c2nnc(SCC(=O)Nc3cccc([N+](=O)[O-])c3)o2)cc1` .
Outgoing: inactive

Incoming: Can you look up the reported call for `CCOC(=O)C1=C(C)N(Cc2ccccc2)C(C)=C(C(=O)OCC)C1c1ccccc1O` for me?
Outgoing: inactive

Incoming: Test call, this compound: `O=C(/C=N/O)Nc1ccc(Cl)c(I)c1`
Outgoing: inactive

Incoming: # outcome recorded in this test, key = `CCOC(=O)c1nc2ccc(C(F)(F)F)cc2nc1Nc1ccc(F)cc1`
Outgoing: inactive

Incoming: What did this assay record as the result for COC(=O)C(CCSC)NC(=O)CNC(=O)CSc1nnc(COc2ccc(Cl)cc2)n1-c1ccccc1 (stereo unspecified) ?
Outgoing: inactive

Incoming: Assay outcome for CC(C)[Si](OCC/C=C/C1CCC(=O)C1C(O)C1CCCCC1)(C(C)C)C(C)C (stereo unspecified) : what was it?
Outgoing: inactive

Incoming: Check the results log: what was the call for COC(=O)C(Cc1c[nH]c2ccccc12)NC(=O)C(Cc1c[nH]c2ccccc12)NC(=O)C(Cc1c[nH]c2ccccc12)NC(=O)C(Cc1c[nH]c2ccccc12)NC(=O)C(Cc1c[nH]c2ccccc12)NC(=O)C(Cc1c[nH]c2ccccc12)NC(=O)C(Cc1c[nH]c2ccccc12)NC(=O)OC(C)(C)C (stereo unspecified) (Boc-WWWWWWW-OMe; configuration not given here) ?
Outgoing: inactive

Incoming: Please indicate how the test categorized `COc1cc(OC)c2c(=O)c(O)c(-c3ccc(OC)c(OC)c3)oc2c1` .
Outgoing: inactive

Incoming: I would be grateful if you could indicate the recorded call for C1=C(c2ccccc2)C(OC2Oc3ccccc3C=C2c2ccccc2)Oc2ccccc21 (stereo unspecified) .
Outgoing: inactive

Incoming: How was `CCOC(=O)CCN1C(=O)C(=O)N(c2ccc(OC)cc2)C1=S` classified in this test?
Outgoing: inactive

Incoming: Outcome logged for `Nc1c(Cl)ncnc1NCCCNc1ncnc(Cl)c1N` in this assay:
Outgoing: inactive

Incoming: Lab log entry: `O=c1oc2c(Cl)cc(Cl)cc2cc1C1=CSC2=NCCN12` — outcome as called in the assay?
Outgoing: inactive

Incoming: Could you check what this test reported for `CN1CN(c2ccccc2)C2(CCN(CCc3csc4ccccc34)CC2)C1=O` ?
Outgoing: inactive

Incoming: // param item: `Cc1ccc(S(=O)(=O)N/N=c2\c(C)c(C3=NS(=O)(=O)c4cc(S(N)(=O)=O)c(Cl)cc4N3)oc3c(Cl)cc(Cl)cc23)cc1` ; yields the recorded call
Outgoing: inactive

Incoming: What was the test verdict on CC(C(=O)O)/C(=C\c1ccc2c(c1)OCO2)C(=O)O (stereo unspecified) ?
Outgoing: inactive

Incoming: What call does the record list for Clc1cccc(C2N3CCCCC3[C@@H]3c4[nH]c5ccccc5c4CCN23)c1 (stereo partly specified) ?
Outgoing: inactive

Incoming: Record request — test call for `CN(C)CC(C)(C)C(/C=C/c1ccccc1)=N\Nc1ccccc1`
Outgoing: inactive

Incoming: What is the recorded call for this compound in the test? `N#CCCN(CCC#N)C(=O)c1cccc(C(=O)N(CCC#N)CCC#N)c1`
Outgoing: inactive

Incoming: How was `Cc1csc2nc3c(cnn3C)c(=S)n12` classified in this test?
Outgoing: inactive

Incoming: What did this assay record as the result for `CC(=O)N/C(=C\c1ccc(/C=C(\NC(C)=O)c2nc3cc(Cl)ccc3[nH]2)cc1)c1nc2ccccc2[nH]1` ?
Outgoing: inactive

Incoming: # outcome recorded in this test, key = O=[N+]([O-])c1nccn1CC(O)CN1CC1 (stereo unspecified)
Outgoing: inactive

Incoming: Per the records of this test, what outcome belongs to `Cc1csc2n(C)c(=O)c3ccccc3[n+]12` ?
Outgoing: inactive

Incoming: What is the recorded call for this compound in the test? Cc1nn(C(=O)c2ccccc2O)c2c1C(c1ccccc1)SC(=N)N2 (stereo unspecified)
Outgoing: inactive

Incoming: Which outcome was entered for the compound `O=C(/C=C/c1ccc([N+](=O)[O-])cc1)N1CCN(CCOC(c2ccc(F)cc2)c2ccc(F)cc2)CC1` in this test?
Outgoing: inactive

Incoming: Please indicate how the test categorized CC(SC(=S)N1CCCC1)C(=O)Nc1nnc(-c2ccc(Cl)cc2)o1 (stereo unspecified) .
Outgoing: inactive

Incoming: Which outcome was assigned to COc1cc(C2c3cc4c(cc3OC(C)(N3CCCC3)C2C)OCO4)cc(OC)c1OC (stereo unspecified) in this test?
Outgoing: active

Incoming: Given C[C@@H]1C[C@@H]2OC(=O)[C@]3(C)[C@H]2[C@@H](OC3(C)O)[C@]2(C)C(=O)C=C[C@@H]12 (stereo partly specified) [TENULIN] , state the outcome it received in this test.
Outgoing: inactive

Incoming: Status in this test for `O=C(Nc1cc(Cl)c(I)c(Cl)c1)C(F)(F)F` ?
Outgoing: inactive

Incoming: Write down the call the test reported for this compound. Item: OC(c1ccccc1)C1CC2C=CC1C2 (stereo unspecified)
Outgoing: inactive

Incoming: Please indicate how the test categorized COC(=O)C1[C@H](c2ccc3c(c2)OCO3)OC(=O)[C@]1(C(=O)OC)C(=O)c1ccc(OC)c(OC)c1 (stereo partly specified) .
Outgoing: inactive

Incoming: Please let me know the test result on file for COc1cc(C2CC(C)(Nc3ccccc3)Oc3cc4c(cc32)OCO4)cc(OC)c1OC (stereo unspecified) .
Outgoing: active

Incoming: Hello, I am checking results. What call was entered for O=C1OC2CCCC[C@@H]2C2C[C@]34CCCCC3[C@@H](C(=O)O4)C12 (stereo partly specified) ?
Outgoing: inactive

Incoming: State the result this test recorded for `CC(C)[C@@H]1NC(=O)[C@@H]2N=C(O[C@H]2C)[C@H](C(C)C)NC(=O)C2N=C1O[C@H]2C` .
Outgoing: inactive

Incoming: Dear all, I need the recorded test outcome for CC1(C)NC(=O)C(NC(=O)C(N)CC(=O)O)CCCCNC(=O)CCNC1=O (stereo unspecified) (H-DK[Aib][βAla]; lactam 2-C; configuration not given here) , thank you.
Outgoing: inactive

Incoming: Call for entry `C/C(CCn1[nH]c(=O)ccc1=O)=N\OCCCc1ccccc1` :
Outgoing: inactive

Incoming: Returns: the outcome recorded for `Nc1ccccc1C(=O)CCC1C(=O)NC(=S)NC1=O` in this assay.
Outgoing: inactive
